# Test system: CEM cells HIV-1 protection, formazan growth assay
# assay_remarks: NCI AIDS Antiviral Assay
# condition_details: measured here: growth of uninfected CEM cells
test_readout: IC50

Sample records with IC50:
molecule	measurement
CO/N=C1/C(n2[nH]c(=O)n(-c3ccccc3)c2=O)C2C=CC1n1c(=O)n(-c3ccccc3)c(=O)n12 (configuration not stated)	> 200 µM
COc1ccc2c(c1)OC1(OCCO1)[C@@H]1C2CC[C@@]2(C)C1CCC21OCCO1 (some centres not stated)	> 18.6 µM
c1ccc(OCCSCCCCCCCCCCSCCOc2ccccc2)cc1	> 8.51 µM
Cn1c(N)c(N=Nc2ccc(S(=O)(=O)Nc3ncccn3)cc2)c(=O)n(C)c1=O	> 200 µM

State the recorded IC50 for every item in the following list.
1. C[C@]12CCc3nn(-c4ccccc4)nc3C1CC[C@@H]1C2CC[C@]2(C)NC(=O)CCC12 (some centres not stated)
2. Cc1ccc(/C=C2\N=C(N3CCOCC3)NC2=O)cc1
3. Cc1cn(CCCCCCOC(=O)NC(CCCNC(N)=O)C(=O)O)c(=O)[nH]c1=O (configuration not stated)

Outgoing:
["> 23.4 µM", "> 200 µM", "> 200 µM"]

State the recorded IC50 for every item in the following list.
1. CO/C=C/CCCN(CC#N)Cc1ccccc1
2. NC12CC3CC(CC(C3)C1)C2
3. C=CCCCCC1CCC2CCC(CCCC)N12 (configuration not stated)

Outgoing:
1. > 27.5 µM
2. > 200 µM
3. > 525 µM

State the recorded IC50 for every item in the following list.
1. CC1(C)OC(=O)C(C)(C)OC1=O
2. Cc1ncc([N+](=O)[O-])n1CCNC(=O)Cn1c([N+](=O)[O-])cnc1C

Outgoing:
1: > 200 µM; 2: > 200 µM
